Origin of measurements: patent US5665739A

study_system: Na^+ /H^+ exchanger (Oryctolagus cuniculus)
Construct: endogenous in cells
Sequence (P23791 whole entry): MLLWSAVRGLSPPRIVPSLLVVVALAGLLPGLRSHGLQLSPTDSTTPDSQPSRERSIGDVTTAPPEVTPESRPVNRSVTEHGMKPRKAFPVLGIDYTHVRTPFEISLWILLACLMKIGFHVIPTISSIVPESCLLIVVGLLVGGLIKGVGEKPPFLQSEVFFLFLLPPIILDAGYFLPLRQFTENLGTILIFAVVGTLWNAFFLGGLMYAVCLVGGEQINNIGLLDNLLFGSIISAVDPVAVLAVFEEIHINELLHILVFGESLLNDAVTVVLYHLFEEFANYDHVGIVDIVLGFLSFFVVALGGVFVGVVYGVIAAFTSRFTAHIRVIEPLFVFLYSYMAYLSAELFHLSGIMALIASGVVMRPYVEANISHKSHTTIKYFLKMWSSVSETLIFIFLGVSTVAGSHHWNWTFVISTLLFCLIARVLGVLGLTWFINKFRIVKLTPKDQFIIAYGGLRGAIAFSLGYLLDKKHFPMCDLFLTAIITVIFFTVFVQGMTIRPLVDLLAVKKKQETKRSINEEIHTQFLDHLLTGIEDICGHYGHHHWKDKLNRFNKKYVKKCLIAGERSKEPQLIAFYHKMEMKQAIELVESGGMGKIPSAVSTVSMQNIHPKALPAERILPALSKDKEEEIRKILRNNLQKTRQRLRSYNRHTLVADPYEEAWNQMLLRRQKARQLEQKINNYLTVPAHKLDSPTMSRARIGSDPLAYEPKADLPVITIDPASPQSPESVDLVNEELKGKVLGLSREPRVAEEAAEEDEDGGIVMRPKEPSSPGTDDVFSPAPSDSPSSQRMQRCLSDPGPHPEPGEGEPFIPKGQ
measurement_protocol: Inhibition of the Na+/H+ exchanger of rabbit erythrocytes
experimental_parameters: amiloride-sensitive Na+ influx, pH 7.4, 37° C.
value_type: IC50
Hi, when you answer, please include the unit after the number. Thanks!

Qu. Which value of IC50 has been reported for `NC(N)=NC(=O)c1ccc(Oc2ccc3ncccc3c2)c(C(F)(F)F)c1` in the records?
Ans. 40 nM

Then there is this compound:
Qu. Which IC50 value is on record for `NC(N)=NC(=O)c1ccc(Oc2cccnc2)c(C(F)(F)F)c1` ?
Ans. 30 nM
